- Species: Rattus norvegicus
- assay.details: Inhibition of the 5-HT [14C]5-HT uptake by rat brain slices In vitro
- Format: functional
experimental.readout: IC50 (µM)
Numbers only; they are read as µM.

NC1=NC(c2ccccc2)CN1 (stereo not given) = 31
CN(C)CCCN1c2ccccc2CCc2ccccc21 = 5.3
CN1CC(c2ccccc2Cl)N=C1N (stereo not given) = 30

Consider the record given below.
query: Requested field: IC50. Item: CCOC(=O)NC1=NC(c2ccccc2Cl)CN1C (stereo not given)
result: 150

* * *

- Organism: Mus musculus
- assay.details: Righting ability was determined in mice after rapid rolling (aroused)
- Type: functional
// reported Loss of righting reflex per item
Numbers only; they are read as mg/kg.

COC(=O)NC1=NC(c2ccccc2C)CN1 (stereo not given) = 172

query: Requested field: Loss of righting reflex. Item: COC(=O)NC1=NC(c2ccccc2F)CN1 (stereo not given)
result: 234

query: Same question, COC(=O)NC1=NC(c2cccc(OC)c2)CN1 (stereo not given) this time
result: 197

query: Same question, CCOc1ccccc1C1CN=C(NC(=O)OC)N1 (stereo not given) this time
result: 125

query: Same question, COC(=O)NC1=NC(c2cccc(C)c2)CN1 (stereo not given) this time
result: 157
